Known solubility of a selection of compounds
# protocol description: Aqueous solubility of compound at pH 4 by UPLC analysis
# Type: physicochemical
# condition: aqueous medium, read-out: solubility

Worked examples, 2 compounds total:
CCC(C)C(OC(=O)O[C@@H](CN(Cc1ccc(-c2ccccn2)cc1)NC(=O)[C@@H](NC(=O)OC)C(C)(C)C)[C@H](Cc1ccccc1)NC(=O)[C@@H](NC(=O)OC)C(C)(C)C)OC(=O)[C@@H](N)C(C)C (mixture of isomers): > 1500 µg/mL
COC(=O)N[C@H](C(=O)N[C@@H](Cc1ccccc1)[C@@H](O)CN(Cc1ccc(-c2ccccn2)cc1)NC(=O)[C@@H](NC(=O)OC)C(C)(C)C)C(C)(C)C: < 1 µg/mL

Here's the next entry for you.
Value lookup for solubility; key = COC(=O)N[C@H](C(=O)N[C@@H](Cc1ccccc1)[C@H](CN(Cc1ccc(-c2ccccn2)cc1)NC(=O)[C@@H](NC(=O)OC)C(C)(C)C)OC(=O)OC(OC(=O)[C@@H](N)Cc1ccccc1)C(C)C)C(C)(C)C (stereo in doubt; 3v)
> 840 µg/mL

###

# protocol description: Aqueous stability of the compound in phosphate buffer at pH 6.5 assessed as compound half life measured after 24 hrs by UPLC analysis
# Assay type: physicochemical
# condition: phosphate buffer, pH 6.5
readout: half-life (h)

Look over these answered cases.
COC(=O)N[C@H](C(=O)N[C@@H](Cc1ccccc1)[C@H](CN(Cc1ccc(-c2ccccn2)cc1)NC(=O)[C@@H](NC(=O)OC)C(C)(C)C)OC(=O)OC(OC(=O)[C@@H](NC(=O)[C@@H](N)C(C)C)C(C)C)C(C)C)C(C)(C)C (stereo in doubt; 6e): 167
CN[C@H](C(=O)OC(OC(=O)O[C@@H](CN(Cc1ccc(-c2ccccn2)cc1)NC(=O)[C@@H](NC(=O)OC)C(C)(C)C)[C@H](Cc1ccccc1)NC(=O)[C@@H](NC(=O)OC)C(C)(C)C)C(C)C)C(C)C (stereo in doubt; 5e): 4.7
COC(=O)N[C@H](C(=O)N[C@@H](Cc1ccccc1)[C@H](CN(Cc1ccc(-c2ccccn2)cc1)NC(=O)[C@@H](NC(=O)OC)C(C)(C)C)OC(=O)OC(OC(=O)CCN)C(C)C)C(C)(C)C (stereo in doubt; 3z): 10.1
COC(=O)N[C@H](C(=O)N[C@@H](Cc1ccccc1)[C@H](CN(Cc1ccc(-c2ccccn2)cc1)NC(=O)[C@@H](NC(=O)OC)C(C)(C)C)OC(=O)OC(OC(=O)[C@H](N)C(C)C)C(C)C)C(C)(C)C (stereo in doubt; 5i): 16.3
COC(=O)N[C@H](C(=O)N[C@@H](Cc1ccccc1)[C@H](CN(Cc1ccc(-c2ccccn2)cc1)NC(=O)[C@@H](NC(=O)OC)C(C)(C)C)OC(=O)OC(OC(=O)C[C@H](N)Cc1cc(F)c(F)cc1F)C(C)C)C(C)(C)C (stereo in doubt; 3ab): 8.9

1 = COC(=O)N[C@H](C(=O)N[C@@H](Cc1ccccc1)[C@H](CN(Cc1ccc(-c2ccccn2)cc1)NC(=O)[C@@H](NC(=O)OC)C(C)(C)C)OC(=O)OC(OC(=O)[C@@H](N)Cc1ccccc1)C(C)C)C(C)(C)C (stereo in doubt; 3v)
2 = COC(=O)N[C@H](C(=O)N[C@@H](Cc1ccccc1)[C@H](CN(Cc1ccc(-c2ccccn2)cc1)NC(=O)[C@@H](NC(=O)OC)C(C)(C)C)OC(=O)OC(OC(=O)[C@H](C)N)C(C)C)C(C)(C)C (stereo in doubt; 3p)
Hi there, can you help? I need to know whether 1 or 2 has lower measured half-life. Identify your selection by its label.
2
(2: 3.6 h, 1: 10.7 h)

###

# protocol description: Aqueous stability of the compound in phosphate buffer at pH 6.5 assessed as compound half life measured after 24 hrs by UPLC analysis
# Type: physicochemical
# condition: phosphate buffer, pH 6.5
readout: half-life (h)
Number in h, nothing else.

// half-life lookup, key: COC(=O)N[C@H](C(=O)N[C@@H](Cc1ccccc1)[C@H](CN(Cc1ccc(-c2ccccn2)cc1)NC(=O)[C@@H](NC(=O)OC)C(C)(C)C)OC(=O)OC(OC(=O)[C@@H](NC(=O)[C@H](N)C(C)C)C(C)C)C(C)C)C(C)(C)C (stereo in doubt; 6g)
6.1

###

# protocol description: Aqueous solubility of compound at pH 1 by UPLC analysis
# Assay type: physicochemical
# condition: buffer
solubility for assorted compounds

CN[C@H](C(=O)OC(OC(=O)O[C@@H](CN(Cc1ccc(-c2ccccn2)cc1)NC(=O)[C@@H](NC(=O)OC)C(C)(C)C)[C@H](Cc1ccccc1)NC(=O)[C@@H](NC(=O)OC)C(C)(C)C)C(C)C)C(C)C (stereo in doubt; 5f): > 2000 µg/mL
COC(=O)N[C@H](C(=O)N[C@@H](Cc1ccccc1)[C@H](CN(Cc1ccc(-c2ccccn2)cc1)NC(=O)[C@@H](NC(=O)OC)C(C)(C)C)OC(=O)OC(OC(=O)[C@@H](NC(=O)[C@H](N)C(C)C)C(C)C)C(C)C)C(C)(C)C (stereo in doubt; 6h): > 2000 µg/mL
COC(=O)N[C@H](C(=O)N[C@@H](Cc1ccccc1)[C@H](CN(Cc1ccc(-c2ccccn2)cc1)NC(=O)[C@@H](NC(=O)OC)C(C)(C)C)OC(=O)OC(OC(=O)[C@@H](N)C(C)C)C(C)(C)C)C(C)(C)C (stereo in doubt; 4m): > 1200 µg/mL
COC(=O)N[C@H](C(=O)N[C@@H](Cc1ccccc1)[C@H](CN(Cc1ccc(-c2ccccn2)cc1)NC(=O)[C@@H](NC(=O)OC)C(C)(C)C)OC(=O)OC(OC(=O)[C@@H](N)Cc1ccccc1)C(C)C)C(C)(C)C (stereo in doubt; 3w): > 1670 µg/mL
COC(=O)N[C@H](C(=O)N[C@@H](Cc1ccccc1)[C@H](CN(Cc1ccc(-c2ccccn2)cc1)NC(=O)[C@@H](NC(=O)OC)C(C)(C)C)OC(=O)OC(OC(=O)[C@H](C(C)C)N(C)C)C(C)C)C(C)(C)C (stereo in doubt; 5h): > 1850 µg/mL

Entry COC(=O)N[C@H](C(=O)N[C@@H](Cc1ccccc1)[C@H](CN(Cc1ccc(-c2ccccn2)cc1)NC(=O)[C@@H](NC(=O)OC)C(C)(C)C)OC(=O)OC(OC(=O)CCN)C(C)C)C(C)(C)C (stereo in doubt; 3aa) has what solubility?
> 3000 µg/mL

Next entry: COC(=O)N[C@H](C(=O)N[C@@H](Cc1ccccc1)[C@H](CN(Cc1ccc(-c2ccccn2)cc1)NC(=O)[C@@H](NC(=O)OC)C(C)(C)C)OC(=O)OC(OC(=O)C[C@H](N)Cc1cc(F)c(F)cc1F)C(C)C)C(C)(C)C (stereo in doubt; 3ac)
> 2400 µg/mL

COC(=O)N[C@H](C(=O)N[C@@H](Cc1ccccc1)[C@H](CN(Cc1ccc(-c2ccccn2)cc1)NC(=O)[C@@H](NC(=O)OC)C(C)(C)C)OC(=O)OC(OC(=O)[C@H](N)C(C)C)C(C)C)C(C)(C)C (stereo in doubt; 5j) , same question.
> 1900 µg/mL

###

# protocol description: Cmax in Sprague-Dawley rat at 3 mg/kg,po measured upto 24 hrs by UPLC-MS/MS analysis
# Format: ADME, organism-based
# Set-up: dose 3 mg/kg, time < 24 hrs, route po
# condition: in vivo
readout: Cmax (nM)
Just the number please, in nM, no unit attached.

Please report the recorded Cmax for `COC(=O)N[C@H](C(=O)N[C@@H](Cc1ccccc1)[C@@H](O)CN(Cc1ccc(-c2ccccn2)cc1)NC(=O)[C@@H](NC(=O)OC)C(C)(C)C)C(C)(C)C` .
266

###

# protocol description: Half life in rat hepatocyte measured upto 120 mins in presence of PMSF and ABT by UPLC-MS/MS analysis
# Assay type: ADME, cell-based
# condition: hepatocytes, with PMSF and ABT
readout: half-life (h)
Number only, in h; omit the unit.

# input compound: COC(=O)N[C@H](C(=O)N[C@@H](Cc1ccccc1)[C@H](CN(Cc1ccc(-c2ccccn2)cc1)NC(=O)[C@@H](NC(=O)OC)C(C)(C)C)OC(=O)OC(OC(=O)[C@@H](N)C(C)C)C(C)C)C(C)(C)C (stereo in doubt; 3s) ; wanted: its half-life
1.43

###

# protocol description: Metabolic stability in rat liver microsomes assessed as half life
# Format: ADME, Microsome
readout: half-life (h)
Provide the reading as a plain figure in h.

Looking for the measured half-life of COC(=O)N[C@H](C(=O)N[C@@H](Cc1ccccc1)[C@H](CN(Cc1ccc(-c2ccccn2)cc1)NC(=O)[C@@H](NC(=O)OC)C(C)(C)C)OC(=O)OC(OC(=O)[C@@H](N)C(C)C)C(C)C)C(C)(C)C (stereo in doubt; 3s) , can you help?
3.73

###

# protocol description: Aqueous solubility of compound at pH 4 by UPLC analysis
# Type: physicochemical
# condition: buffer
Overview of reported solubility across a group of compounds:

Suppose we examine the compound COC(=O)N[C@H](C(=O)N[C@@H](Cc1ccccc1)[C@H](CN(Cc1ccc(-c2ccccn2)cc1)NC(=O)[C@@H](NC(=O)OC)C(C)(C)C)OC(=O)OC(OC(=O)[C@H](C(C)C)N(C)C)C(C)C)C(C)(C)C (stereo in doubt; 5h) ; what solubility value has been reported?
160 µg/mL

Now the same for COC(=O)N[C@H](C(=O)N[C@@H](Cc1ccccc1)[C@H](CN(Cc1ccc(-c2ccccn2)cc1)NC(=O)[C@@H](NC(=O)OC)C(C)(C)C)OC(=O)OC(OC(=O)[C@@H](NC(=O)[C@@H](N)C(C)C)C(C)C)C(C)C)C(C)(C)C (stereo in doubt; 6f)
> 1400 µg/mL

Try this compound too: COC(=O)N[C@H](C(=O)N[C@@H](Cc1ccccc1)[C@H](CN(Cc1ccc(-c2ccccn2)cc1)NC(=O)[C@@H](NC(=O)OC)C(C)(C)C)OC(=O)OC(OC(=O)[C@@H](N)Cc1ccccc1)C(C)C)C(C)(C)C (stereo in doubt; 3w)
> 1630 µg/mL

And for COC(=O)N[C@H](C(=O)N[C@@H](Cc1ccccc1)[C@H](CN(Cc1ccc(-c2ccccn2)cc1)NC(=O)[C@@H](NC(=O)OC)C(C)(C)C)OC(=O)OC(OC(=O)[C@@H](N)CC(C)C)C(C)C)C(C)(C)C (stereo in doubt; 3u) ?
> 1600 µg/mL
